- Species on record: Rattus norvegicus
- Assay text: Ratio of the concentration increasing time to contracture by 25% (EC25) in rat heart and concentration showing vasorelaxant potency (IC50) in rat aorta.
- Type: functional
Everything with Ratio lower than 3 is no (0); everything else, including exactly 3, is yes (1).

Challenge: In plain terms: is recorded Ratio at least 3 for CC1(C)Oc2ccc(C#N)cc2[C@@H](/N=C(\NC#N)Nc2ccc3c(c2)CCC3)[C@@H]1O ?
Response given: no (0)

Challenge: In plain terms: is recorded Ratio at least 3 for COc1ccc(N/C(=N/[C@@H]2c3cc(C#N)ccc3OC(C)(C)[C@H]2O)NC#N)cc1 ?
Response given: no (0)

Challenge: In plain terms: is recorded Ratio at least 3 for CC1(C)Oc2ccc(C#N)cc2[C@@H](/N=C(\NC#N)Nc2cccc(C(F)(F)F)c2)[C@@H]1O ?
Response given: yes (1)

Challenge: In plain terms: is recorded Ratio at least 3 for CC1(C)Oc2ccc(C#N)cc2[C@@H](/N=C(\NC#N)Nc2ccccc2)[C@@H]1O (stereo in doubt; 22) ?
Response given: yes (1)

Challenge: In plain terms: is recorded Ratio at least 3 for CC1(C)Oc2ccc(C#N)cc2[C@@H](/N=C(\NC#N)Nc2ccccc2)[C@@H]1O (stereo in doubt; 3) ?
Response given: yes (1)

Challenge: In plain terms: is recorded Ratio at least 3 for CC1(C)Oc2ccc(C#N)cc2[C@@H](/N=C(\NC#N)Nc2ccc(Cl)c(Cl)c2)[C@@H]1O ?
Response given: no (0)

Challenge: In plain terms: is recorded Ratio at least 3 for CC(=O)c1ccc(N/C(=N/[C@@H]2c3cc(C#N)ccc3OC(C)(C)[C@H]2O)NC#N)cc1 ?
Response given: no (0)

Challenge: In plain terms: is recorded Ratio at least 3 for CC1(C)Oc2ccc(C#N)cc2[C@@H](NC(=O)Cc2ccccc2)[C@@H]1O ?
Response given: yes (1)

meta.source: ChEMBL document CHEMBL1128515
